- Tested on: HCT-116 colon
- assay.comment: NCI tumour cell line growth inhibition, 48 h; in the data active = GI50 below about 0.43 µM; inactive = the rest
I would appreciate it if you answered using one of these outcomes: T (active), F (inactive)

| compound | answer.label |
| --- | --- |
| CC(C)Oc1ccc(C(=O)N[C@H](CNC(=O)CN(C)C)Cc2ccc(-c3cn4cccc([C@H](C)O)c4n3)cc2)cc1Cl | T |

Tell me the recorded outcome of this test for Cc1nn(-c2ccc(Br)cc2)c(C)c1CC(=O)c1cc(O)ccc1O .
F

----------
- Test system: HCC-2998 colon
- assay.comment: NCI tumour cell line growth inhibition, 48 h
readout.label: GI50

| compound | GI50 |
| --- | --- |
| S=C(N/N=C(/c1ccccc1)c1ccccn1)Nc1cccc(Cl)c1 | 2 µM |
| CCc1ccc(Nc2cc(C)nc3nc(C)nn23)cc1 | > 100 µM |
| O=CC1(C2(C=O)c3ccccc3-c3ccccc32)c2ccccc2-c2ccccc21 | > 100 µM |
| CCCCCCCCCC(CCCC(O)CC(=O)O)OC1OC(COC2OC(C)C(O)C(O)C2O)C(O)C(O)C1OC1OC(CO)C(O)C(O)C1OC1OC(C)C(O)C(O)C1O (stereo not given) | > 40 µM |

Please look at the following compound next.
Name the recorded GI50 for COc1cc(NC(N)=NCCC(C)(C)c2ccc(C(F)(F)F)cc2)ncc1C#N .
1.89 µM

----------
- Tested on: OVCAR-5 ovarian
- assay.comment: NCI tumour cell line growth inhibition, 48 h
readout.label: TGI

Below, 4 compounds whose answers are already recorded.
| compound | readout.label | observed.value |
| --- | --- | --- |
| O=c1[nH]c(/C=C(\O)c2ccncc2)nc2ccccc12 | TGI | > 100 µM |
| COc1ccc(C(=O)O)c(Cc2ccc3ccccc3c2)c1 | TGI | > 100 µM |
| COc1cc2c(cc1OC)C(Cc1c3ccccc3cc3ccccc13)N(C)CC2 (stereo not given) | TGI | 40.2 µM |
| C[n+]1ccc(-c2c3nc(c(-c4ccc5c(ccc[n+]5C)c4)c4ccc([nH]4)c(-c4cc[n+](C)cc4)c4nc(c(-c5ccc6c(ccc[n+]6C)c5)c5ccc2[nH]5)C=C4)C=C3)cc1 | TGI | > 50 µM |

Name the recorded TGI for CN1CCN(c2ccc(-n3cc(C(=O)O)c(=O)c4cc(F)c(N5CCN(C)CC5)cc43)nc2)CC1 .
> 100 µM

Name the recorded TGI for CC(C)(C)NC1C2CCC(C)(C1O)C2(C)C (stereo not given) .
> 100 µM

----------
- Tested on: ACHN renal
- assay.comment: NCI tumour cell line growth inhibition, 48 h
TGI values for the compounds below.
Please give a number only; it is taken to be in µM.

| structure | readout.label | observed.value |
| --- | --- | --- |
| Cc1nn(-c2ccc(Br)cc2)c(C)c1CC(=O)c1cc(O)ccc1O | TGI | 24.6 |

Name the recorded TGI for COc1cc(OC)nc(Nc2c(C#N)c3nc4ccccc4n3c3ccccc23)n1 .
50.1

Name the recorded TGI for CC[C@]12CCCN3CC[C@]4(C(=C(C(=O)OC)C1)Nc1ccccc14)[C@@H]32 .
28.6

Name the recorded TGI for Cc1c2cccc-2c(OCCO)cc2c1[nH]c1ccccc12 .
2.72

----------
- System: HCT-15 colon
- assay.comment: NCI tumour cell line growth inhibition, 48 h
TGI values for the molecules below.

Below, 8 molecules whose answers are already recorded.
| molecule | tested.system | observed.value |
| --- | --- | --- |
| COc1cc(NC(N)=NCCC(C)(C)c2ccc(C(F)(F)F)cc2)ncc1C#N | HCT-15 colon | 2.9 µM |
| C=C(C(=O)O)[C@@H]1C[C@@H]2O[C@H]1CC(C)=CCC/C(C)=C/CC[C@@]2(C)O | HCT-15 colon | > 100 µM |
| Oc1cc2c(cc1O)-c1[nH]ncc1CC2 | HCT-15 colon | > 100 µM |
| O=C([O-])c1ccccc1Nc1ccccc1[O-].[Ni+3].[OH3+].[OH3+].[OH3+] | HCT-15 colon | > 100 µM |
| Cc1nc2c(ncn2CCO)c(=O)[nH]1 | HCT-15 colon | > 100 µM |
| CC1=C2C(O)C(C(C)C(=O)NC(C)C)CCC2(C)C=CC1=O (stereo not given) | HCT-15 colon | > 100 µM |
| CN(C)/C=N/c1nc2ncn(CCOC(=O)c3ccccc3)c2c(=O)[nH]1 | HCT-15 colon | > 100 µM |
| COC(=O)C1CCC(=O)N1C(c1ccc2c(c1)OCO2)c1ccc2c(c1)OCO2 (stereo not given) | HCT-15 colon | > 100 µM |

Name the recorded TGI for CCOP(=O)(OCC)/C(C#N)=C/c1c(C)[nH]c2ccccc12 .
> 100 µM

Name the recorded TGI for COc1c(O)cc(C(=O)O[C@@H]2Cc3c(O)cc(O)cc3O[C@@H]2c2cc(O)c(O)c(O)c2)cc1O .
86.2 µM
